Reference source: ChEMBL document CHEMBL1961873

I'd be grateful if you could share measured inhibition for these entries.
molecular target: Serine/threonine-protein kinase pim-2 (Homo sapiens) (UniProt Q9P1W9); settings: at 1 µM;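 note: each value is a mean of the inhibition measurements against the kinase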
Sequence (Q9P1W9 whole entry, looked up): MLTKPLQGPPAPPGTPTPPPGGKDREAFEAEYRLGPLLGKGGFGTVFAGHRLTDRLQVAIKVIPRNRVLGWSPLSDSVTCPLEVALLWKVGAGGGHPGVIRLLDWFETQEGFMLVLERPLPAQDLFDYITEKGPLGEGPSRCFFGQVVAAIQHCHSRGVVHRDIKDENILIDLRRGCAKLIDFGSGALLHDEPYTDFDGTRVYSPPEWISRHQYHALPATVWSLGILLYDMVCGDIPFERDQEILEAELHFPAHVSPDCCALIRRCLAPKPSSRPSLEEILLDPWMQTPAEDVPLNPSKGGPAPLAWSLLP
Numbers only here, please. The scale is %.

Form field: inhibition recorded for Fc1ccc(-c2c(-c3ccncc3)nc3n2CCS3)cc1 with Serine/threonine-protein kinase pim-2 (Homo sapiens) (UniProt Q9P1W9) (enter value)
-3.85

Form field: inhibition recorded for c1ccc(-c2n[nH]cc2-c2ccnc(-c3ccc(OCCN4CCOCC4)cc3)c2)nc1 with Serine/threonine-protein kinase pim-2 (Homo sapiens) (UniProt Q9P1W9) (enter value)
5.56

Form field: inhibition recorded for O=C1NC(=O)C(c2cccc(Cl)c2)=C1Nc1ccc(Cl)c(C(=O)O)c1 with Serine/threonine-protein kinase pim-2 (Homo sapiens) (UniProt Q9P1W9) (enter value)
-0.53

Form field: inhibition recorded for Cc1nnc(-c2ccc(C)c(-c3ccc(C(=O)NCc4ccc(Cl)cc4)cc3)c2)o1 with Serine/threonine-protein kinase pim-2 (Homo sapiens) (UniProt Q9P1W9) (enter value)
-2.67

Form field: inhibition recorded for CNC(=O)c1cncc(/C=C/c2c(C)cccc2C)c1 with Serine/threonine-protein kinase pim-2 (Homo sapiens) (UniProt Q9P1W9) (enter value)
-3.47

Form field: inhibition recorded for Cc1ccc(C(=O)NC2CCC2)cc1-c1ccc(C(=O)NCC2CC2)cc1 with Serine/threonine-protein kinase pim-2 (Homo sapiens) (UniProt Q9P1W9) (enter value)
-0.13

Form field: inhibition recorded for O=C(Nc1n[nH]c2nc(-c3ccc(O)cc3)c(Br)cc12)C1CC1 with Serine/threonine-protein kinase pim-2 (Homo sapiens) (UniProt Q9P1W9) (enter value)
75.2

Form field: inhibition recorded for C[C@@H](Oc1cc(-n2cnc3ccc(OCC4CCN(C)CC4)cc32)sc1C(N)=O)c1ccccc1Cl with Serine/threonine-protein kinase pim-2 (Homo sapiens) (UniProt Q9P1W9) (enter value)
2.74

Form field: inhibition recorded for COc1cc2ncn(-c3cc(OCCc4ccccc4)c(C(N)=O)s3)c2cc1OC with Serine/threonine-protein kinase pim-2 (Homo sapiens) (UniProt Q9P1W9) (enter value)
0.47

Form field: inhibition recorded for O=C(Nc1ccc(Oc2ccc3[nH]c(NC(=O)c4ccccc4)nc3c2)cc1)Nc1cc(C(F)(F)F)ccc1F with Serine/threonine-protein kinase pim-2 (Homo sapiens) (UniProt Q9P1W9) (enter value)
-0.13

Form field: inhibition recorded for O=C(Nc1n[nH]c2cc(-c3ccccc3)ccc12)C1CC1 with Serine/threonine-protein kinase pim-2 (Homo sapiens) (UniProt Q9P1W9) (enter value)
0.64

Form field: inhibition recorded for CCc1nccc2c1nc(-c1nonc1N)n2CC with Serine/threonine-protein kinase pim-2 (Homo sapiens) (UniProt Q9P1W9) (enter value)
1.27

Form field: inhibition recorded for O=C1Nc2ccc(I)cc2C1=Cc1cc(Br)c(O)c(Br)c1 with Serine/threonine-protein kinase pim-2 (Homo sapiens) (UniProt Q9P1W9) (enter value)
18.2

Form field: inhibition recorded for N#Cc1ccc(Oc2nccc(-c3c(-c4ccc(F)cc4)ncn3C3CCNCC3)n2)cc1 with Serine/threonine-protein kinase pim-2 (Homo sapiens) (UniProt Q9P1W9) (enter value)
0.58

Form field: inhibition recorded for COc1cc(C)c(N(C)C(=O)CN(C)C)cc1Nc1nc(Nc2cccc(F)c2C(N)=O)c2cc[nH]c2n1 with Serine/threonine-protein kinase pim-2 (Homo sapiens) (UniProt Q9P1W9) (enter value)
-2.78

Form field: inhibition recorded for COc1cccc(-n2cnc3c(N/N=C/c4ccncc4)ncnc32)c1 with Serine/threonine-protein kinase pim-2 (Homo sapiens) (UniProt Q9P1W9) (enter value)
-3.43

Form field: inhibition recorded for Fc1ccc(-c2nc3n(c2-c2ccncc2)CCS3)cc1 with Serine/threonine-protein kinase pim-2 (Homo sapiens) (UniProt Q9P1W9) (enter value)
-3.08

Form field: inhibition recorded for CN(c1ccc(NC(=O)Nc2c(Cl)cccc2Cl)cc1)c1ccnc(Nc2cccc(CS(C)(=O)=O)c2)n1 with Serine/threonine-protein kinase pim-2 (Homo sapiens) (UniProt Q9P1W9) (enter value)
0.1

Form field: inhibition recorded for Cc1ccc(C(=O)NC(C)C)cc1-c1ccc(C(=O)NCC2CC2)cc1 with Serine/threonine-protein kinase pim-2 (Homo sapiens) (UniProt Q9P1W9) (enter value)
1.24

Form field: inhibition recorded for COc1cc2ncn(-c3cc(OCc4ccccc4C(F)(F)F)c(C(C)=O)s3)c2cc1OC with Serine/threonine-protein kinase pim-2 (Homo sapiens) (UniProt Q9P1W9) (enter value)
0.86

Form field: inhibition recorded for CS(=O)(=O)CCNCc1ccc(-c2ccc3ncnc(Nc4ccc(OCc5ccccc5)c(Br)c4)c3c2)o1 with Serine/threonine-protein kinase pim-2 (Homo sapiens) (UniProt Q9P1W9) (enter value)
-3.1
